- Tested on: IGROV1 ovarian
- protocol_notes: NCI tumour cell line growth inhibition, 48 h
reported_property: TGI

The recorded TGI for entry COc1ccc2[nH]c3c(C)cc([N+](=O)[O-])c(C)c3c2c1 equals > 100 µM

The recorded TGI for entry O=C(O)c1ccc(Nc2nc3cc(C(F)(F)F)ccc3n3cccc23)cc1 equals > 100 µM

The recorded TGI for entry COc1ccc(C2C3CCCC(C3=O)C(c3ccc(OC)cc3)N2N=O)cc1 (configuration not stated) equals 97.5 µM

The recorded TGI for entry CC1(C)CCCCCC(C)(CCCO)C1=O (configuration not stated) equals > 100 µM

Others:
The recorded TGI for entry CCCN1C(=O)/C(=C\c2ccc(OC)c(OC)c2)SC1=Nc1ccccc1 equals > 100 µM

The recorded TGI for entry CSCCCNC(=O)c1csc(-c2csc(CCNC(=O)CNC(=O)CNC(=O)OC(C)(C)C)n2)n1 equals > 100 µM

----------
- Test system: SK-MEL-2 melanoma
reported_property: GI50

Here are 3 compounds together with their reported answers.
The recorded GI50 for entry C[C@@H]1COCCN1c1cc(C2([S@@](C)(=N)=O)CC2)nc(-c2ccnc3[nH]ccc23)n1 equals 5.61 µM

The recorded GI50 for entry COc1ccc(N(/C=C/C(=O)C(F)(F)F)CC(=O)c2ccc(Cl)cc2)cc1 equals 15.4 µM

The recorded GI50 for entry O=c1oc2ccc(-c3ccc(F)cc3F)cc2c(=O)n1-c1ccc(Cl)c(C(F)(F)F)c1 equals 1.99 µM

We now examine a further compound.
The recorded GI50 for entry Cc1ccc(NCCN(C)C)c2c(=O)c3ccccc3sc12 equals 2 µM

----------
- System: PC-3 prostate
- protocol_notes: NCI tumour cell line growth inhibition, 48 h
reported_property: TGI

Here are 4 compounds together with their reported answers.
The recorded TGI for entry O=[N+]([O-])/C(C(Cl)=C(Cl)Cl)=C(\N1CCCCC1)n1nnc2ccccc21 equals 32.8 µM

The recorded TGI for entry O=S(=O)(O)Oc1cc2c(c(OS(=O)(=O)O)c1)C[C@H](OS(=O)(=O)O)[C@@H](c1ccc(OS(=O)(=O)O)c(OS(=O)(=O)O)c1)O2 equals > 100 µM

The recorded TGI for entry C#COc1cccc(Nc2ncnc3cc(NC(=O)[C@H](C)Cl)ccc23)c1 equals > 62.5 µM

The recorded TGI for entry Cc1ccc2oc3c(c(Br)c(Br)n3C)c(=O)c2c1 equals > 100 µM

We now examine a further compound.
The recorded TGI for entry Cc1cn(-c2ccc(S(C)(=O)=O)cc2)c(-c2ccc(Cl)cc2)n1 equals > 100 µM

----------
This section presents compounds with their documented log10(TGI) values.
- System: OVCAR-3 ovarian
- protocol_notes: NCI tumour cell line growth inhibition, 48 h
Note the log scale: values are log10 of TGI expressed in µM.

Here are 5 compounds together with their reported answers.
The recorded log10(TGI) for entry O=S(=O)(/N=C(\NO)Nc1ccc(Cl)cc1)c1ccccc1 equals 0.95

The recorded log10(TGI) for entry O=C(CC(=O)c1cccc(Cl)c1)c1cccc(Cl)c1 equals 0.78

The recorded log10(TGI) for entry CC12CCC3c4cc(Br)c(O)c(Br)c4CCC3C1CCC2O (stereo not drawn) equals 1.75

The recorded log10(TGI) for entry Cc1ccc(-c2nc(-c3cn(C)c4ncccc34)cs2)cc1 equals 1.05

The recorded log10(TGI) for entry O=C1c2ccccc2C(=O)c2sc(Nc3ccccc3Cl)nc21 equals 1.41

Others:
The recorded log10(TGI) for entry COc1cc(/C=C/c2cc(/C=C/c3ccc(O)c(OC)c3)n(C(=O)Nc3ccc(Cl)cc3)n2)ccc1O equals 0.03

The recorded log10(TGI) for entry CCCC1(CCC)c2cc(/C=N\O)ccc2-c2ccc(-c3ccc(C(C)(C)C)cc3)cc21 equals 1.74

The recorded log10(TGI) for entry ClCc1cccc(CSc2ncnc3c2ncn3Cc2cccc(CCl)c2)c1 equals 0.52

The recorded log10(TGI) for entry Cc1cnc(Nc2ccc(N3CCN(C)CC3)cc2)nc1Nc1ccc(Cl)c(NS(=O)(=O)C(C)(C)C)c1 equals 0.47

The recorded log10(TGI) for entry Cc1ccc2oc3c(c(Br)c(Br)n3C)c(=O)c2c1 equals 1.67

----------
- Tested on: OVCAR-8 ovarian
- protocol_notes: NCI tumour cell line growth inhibition, 48 h; in the data active means GI50 below about 0.43 µM; inactive means the rest
Parameter call: string, one of True = active, False = inactive

Below are worked cases with known answers.
Asked: Per the assay record, what outcome was assigned to Cc1ccc(-c2nc(-c3cn(C)c4ncccc34)cs2)cc1 ?
Given back: False

Asked: Per the assay record, what outcome was assigned to COc1cccc(/C(C)=N/NC(=O)CSc2nc3ccccc3c(=O)n2CCc2ccc(S(N)(=O)=O)cc2)c1 ?
Given back: False

Asked: Per the assay record, what outcome was assigned to COc1cc2c(=O)n(CCN(C)C)c3c4cc5c(cc4ccc3c2cc1OC)OCO5 ?
Given back: False

Asked: Per the assay record, what outcome was assigned to CC(=O)c1cc(C(=O)c2ccc3c(c2)Sc2ccccc2N3)c2c(C)cccn12 ?
Given back: True

Asked: Per the assay record, what outcome was assigned to O=C(Nc1cc(Oc2cc(F)c(NC(=O)C3(C(=O)Nc4ccc(F)cc4)CC3)cc2F)ccn1)C1CC1 ?
Given back: False

Asked: Per the assay record, what outcome was assigned to COc1ccc(C2C=C(c3ccc(Cl)cc3)N=C3SC=C(C)N32)c(Br)c1 (configuration not stated) ?
Given back: False

Others:
Asked: Per the assay record, what outcome was assigned to O=C(Nc1ccccc1O)c1ccc(NS(=O)(=O)c2cccc3cccnc23)cc1 ?
Given back: False

Asked: Per the assay record, what outcome was assigned to Nc1nc(N)c2cc(Sc3cccc(C(F)(F)F)c3)ccc2n1 ?
Given back: False

Asked: Per the assay record, what outcome was assigned to CCS(=O)(=O)c1ccc(OC)c(Nc2ncc(-c3ccccc3Cl)o2)c1 ?
Given back: False

Asked: Per the assay record, what outcome was assigned to O=S(=O)(Nc1ccc(F)c(Cl)c1)c1ccc(-c2cnc(C3CC3)o2)cc1 ?
Given back: False

Asked: Per the assay record, what outcome was assigned to Cc1cnc(Nc2ccc(N3CCN(C)CC3)cc2)nc1Nc1ccc(Cl)c(NS(=O)(=O)C(C)(C)C)c1 ?
Given back: False

Asked: Per the assay record, what outcome was assigned to CC1=C(C)C2(O)C(=C(C)C1=O)/C(=C(/O)c1ccccc1)c1nc3ccccc3n12 (configuration not stated) ?
Given back: False

Asked: Per the assay record, what outcome was assigned to COc1ccc(Cn2cc3c(c2-c2ccccc2)CCc2cnoc2-3)cc1N ?
Given back: False

Asked: Per the assay record, what outcome was assigned to C[C@@H]1COCCN1c1cc(C2([S@@](C)(=N)=O)CC2)nc(-c2ccnc3[nH]ccc23)n1 ?
Given back: False

----------
This section presents compounds with their documented TGI values.
- Test system: COLO 205 colon
- protocol_notes: NCI tumour cell line growth inhibition, 48 h

The recorded TGI for entry NC(=O)c1c(NC=O)ncn1C1OCC(O)C(O)C1O (stereo not given) equals > 100 µM

Others:
The recorded TGI for entry COc1ccc2nc3n(c2c1)C(=O)c1ccccc1-3 equals > 100 µM

The recorded TGI for entry COc1ccc(N2C(=O)C3c4[nH]c5ccc(F)cc5c4C4CCC(C(C)(C)C)CC4C3C2=O)cc1 (stereo not given) equals > 10 µM

The recorded TGI for entry C[N+]1(CCC[N+]2(C)CC3C4C=CC(CC4)C3C2)CCOCC1 (stereo not given) equals > 100 µM

The recorded TGI for entry CCn1c2ccccc2c2ccc(C3C(C(=O)OC)=C(C)NC(C)=C3C(=O)OC)cc21 equals > 100 µM

----------
- System: SK-MEL-5 melanoma
- protocol_notes: NCI tumour cell line growth inhibition, 48 h
reported_property: TGI (µM)
Please respond with the number in µM and leave the unit unwritten.

Here are 3 compounds together with their reported answers.
The recorded TGI for entry O=C(C[P+](c1ccccc1)(c1ccccc1)c1ccccc1)C[P+](c1ccccc1)(c1ccccc1)c1ccccc1 equals 1.8

The recorded TGI for entry O=C1c2ccccc2C(=O)c2sc(Nc3ccccc3Cl)nc21 equals 16.4

The recorded TGI for entry Nc1c2c(nc3ccccc13)-c1ccccc1NCCC2 equals 28.6

We now examine a further compound.
The recorded TGI for entry COc1cc(NCCN=C(N)NC(N)=NC(C)C)c2ncccc2c1 equals 11.7

----------
- Tested on: NCI/ADR-RES ovarian
- protocol_notes: NCI tumour cell line growth inhibition, 48 h
reported_property: TGI

// returns TGI for NC(Cc1ncccn1)C(=O)O (stereo unspecified) with NCI/ADR-RES ovarian; value = > 100 µM

We now examine a further compound.
// returns TGI for Cc1cccc(C)c1Nc1nc(C)c(C(=O)CC(=O)C(=O)Nc2c(C(C)C)cccc2C(C)C)s1 with NCI/ADR-RES ovarian; value = > 100 µM
